Reported pIC50 values follow for various molecules
# System Tested: pseudo-kinase domain (JH2, amino-acids 536-812) of human Wild Type JAK2 (Homo sapiens, UniProt O60674, F794H/W659A/W777A)
# Construct: pseudo-kinase domain (JH2, amino-acids 536-812 with 3 surface mutations W659A, W777A, F794H); His (C)
# Sequence (O60674 536-812 W659A/W777A/F794H): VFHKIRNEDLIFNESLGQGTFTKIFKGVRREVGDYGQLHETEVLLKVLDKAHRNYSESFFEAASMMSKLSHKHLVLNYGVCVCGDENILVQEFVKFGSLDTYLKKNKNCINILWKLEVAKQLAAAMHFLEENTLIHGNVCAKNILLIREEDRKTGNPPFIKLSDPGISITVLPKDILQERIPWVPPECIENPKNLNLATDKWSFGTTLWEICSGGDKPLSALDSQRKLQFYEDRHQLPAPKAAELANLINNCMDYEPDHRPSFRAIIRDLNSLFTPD
# Protocol Text: JAK2 LanthaScreen JH2-WT Binding Assay
# Condition: JAK2 JH2-WT 0.145 nM, 50 nM tracer, 1 hour at 25° C.; read-out: JH2 BIND WT
pIC50: −log10 of the molar value.
Parameter: pIC50

Molecule	Parameter	Experimental Value
[2H]C([2H])([2H])n1c(=O)n([C@@H]2CC[C@@H](NC(=O)OC)C2)c2cc(Nc3cccc(-n4cc(C(F)(F)F)cn4)n3)ncc21	pIC50	≥ 8.00
COC(=O)N[C@@H]1CC[C@@H](n2c(=O)n(C)c3cnc(Nc4ccc5ncc(-c6cncn6C)n5n4)cc32)C1	pIC50	≥ 8.00
COC(=O)N[C@@H]1CC[C@@H](n2c(=O)n(C)c3cnc(Nc4ccc(F)c(-c5ccc(C6CC6)cc5)n4)cc32)C1	pIC50	≥ 8.00
COC(=O)N[C@@H]1CC[C@@H](n2c(=O)n(C)c3cnc(Nc4cccc(C(=O)N5CCCCC5)n4)cc32)C1	pIC50	7.00 to 8.00
[2H]C([2H])([2H])n1c(=O)n([C@@H]2CC[C@@H](NC(=O)OC)C2)c2cc(Nc3cc(C4CCN(C(C)=O)CC4)cc(-c4ncc(C(F)(F)F)s4)n3)ncc21	pIC50	≥ 8.00
COC(=O)Nc1cc(Nc2cc3c(cn2)n(C)c(=O)n3[C@H]2C[C@](C)(NC(=O)OC)C2)cc(-c2cnn(C)c2)c1	pIC50	6.30 to 7.00
[2H]C([2H])([2H])n1c(=O)n([C@@H]2CC[C@](C)(NC(=O)C3CC3)C2)c2cc(Nc3cc(CO)c4nn(C)c(-c5cnn(C(F)(F)F)c5)c4n3)ncc21	pIC50	≥ 8.00
COC(=O)N[C@@H]1CC[C@@H](n2c(=O)n(C)c3cnc(Nc4cc(NC(=O)OC5CCC5)cc(-c5cnn(C)c5)c4)cc32)C1	pIC50	≥ 8.00
COC(=O)N[C@@H]1CC[C@@H](n2c(=O)n(C)c3cnc(Nc4ccnc(N5CCC(F)(F)C5)n4)cc32)C1	pIC50	≥ 8.00
COC(=O)Nc1cc(Nc2cc3c(cn2)n(C)c(=O)n3[C@@H]2CCC(F)(F)C2)cc(-c2cnn(C)c2)c1	pIC50	7.00 to 8.00
[2H]C([2H])([2H])n1c(=O)n([C@@H]2CC[C@@H](NC(=O)OC)C2)c2cc(Nc3cc(C(=O)N4CCOC5CC54)c4cccc(C(F)(F)F)c4n3)ncc21 (stereo partly drawn)	pIC50	≥ 8.00
[2H]C([2H])([2H])n1c(=O)n([C@@H]2CC[C@@H](NC(=O)OC)C2)c2cc(Nc3cc(CO)nc(-c4ccc(C(F)F)s4)n3)ncc21	pIC50	≥ 8.00
COC(=O)N[C@@H]1CC[C@@H](n2c(=O)n(C)c3cnc(Nc4cc(C)nc(N5CCC(F)(F)C5)n4)cc32)C1	pIC50	≥ 8.00
CCOC(=O)c1cnc(Nc2cc(Nc3cc4c(cn3)n(C)c(=O)n4[C@@H]3CC[C@@H](NC(=O)OC)C3)cc(-c3cccc(C#N)c3)c2)o1	pIC50	7.00 to 8.00
[2H]C([2H])([2H])n1c(=O)n([C@@H]2CC[C@@H](NC(=O)OC)C2)c2cc(Nc3ccc4ncc(C5CC5)n4n3)ncc21	pIC50	≥ 8.00
[2H]C([2H])([2H])n1c(=O)n([C@]2([2H])CC[C@@H](NC(=O)OC)C2)c2cc(Nc3cc(-c4cnccc4C(F)(F)F)c4nc(C)c(-c5cnn(C(F)F)c5)n4n3)ncc21 (single isomer, unassigned)	pIC50	≥ 8.00
COC(=O)Nc1cc(Nc2cc3c(cn2)n(C)c(=O)n3[C@@H]2CC[C@@H](NC(=O)OC)C2)cc(C2CCCOC2)c1 (stereo partly drawn)	pIC50	≥ 8.00
COC(=O)N[C@@H]1CC[C@@H](n2c(=O)n(C)c3cnc(Nc4ccc(F)c(-c5ccc(OC(F)(F)F)cc5)n4)cc32)C1	pIC50	7.00 to 8.00
[2H]C([2H])([2H])n1c(=O)n([C@@H]2CC[C@@H](NC(=O)OC)C2)c2cc(Nc3cc(C(=O)N4CCC(C#N)CC4)c4cccc(C(F)(F)F)c4n3)ncc21	pIC50	≥ 8.00
[2H]C([2H])([2H])n1c(=O)n([C@@H]2CC[C@@H](NC(=O)OC)C2)c2cc(Nc3cc(C(=O)N4CC5(CCN5C)C4)c4cccc(C(F)(F)F)c4n3)ncc21	pIC50	≥ 8.00
Cn1cc(-c2cc(NC(=O)OC3CCC3)cc(Nc3cc4c(cn3)n(C)c(=O)n4[C@@H]3CC[C@@H](NC(=O)Oc4ccc(F)cc4)C3)c2)cn1	pIC50	≥ 8.00
[2H]C([2H])([2H])n1c(=O)n([C@@H]2CC[C@@H](NC(=O)OC)C2)c2cc(Nc3ccc4c(n3)n(-c3cnn(C(F)F)c3)c(=O)n4CC3(C#N)CC3)ncc21	pIC50	≥ 8.00
CCOC(=O)NC1CC2(C1)CC(n1c(=O)n(C)c3cnc(Nc4cc(NC(=O)OC)cc(-c5cnn(C)c5)c4)cc31)C2 (stereo not drawn)	pIC50	7.00 to 8.00
[2H]C([2H])([2H])n1c(=O)n([C@@H]2CC[C@@H](NC(=O)OC)C2)c2cc(Nc3cc(C(C)(C)O)cc(-c4ncc(Cl)s4)n3)ncc21	pIC50	≥ 8.00

====

Reported pIC50 is given for each of the following compounds.
# System Tested: pseudo-kinase domain (JH2, amino-acids 536-812) of human Wild Type JAK2 (Homo sapiens, UniProt O60674, F794H/W659A/W777A)
# Construct: pseudo-kinase domain (JH2, amino-acids 536-812 with 3 surface mutations W659A, W777A, F794H); His (C)
# Protocol Text: JAK2 LanthaScreen JH2-WT Binding Assay
# Condition: JAK2 JH2-WT 0.145 nM, 50 nM tracer, 1 hour at 25° C.; read-out: JH2 BIND WT
pIC50: −log10 of the molar value.
Parameter: pIC50

>>> df
                                   compound  experimental_value
0  COC(=O)N[C@@H]1CC[C@@H](n2c(=O)n(C)c3cnc(Nc4cc(NC(=O)[C@H]5CC5(F)F)cc(C5CCOCC5)c4)cc32)C1              ≥ 8.00
1  [2H]C([2H])([2H])n1c(=O)n([C@@H]2CC[C@@H](NC(=O)OC)C2)c2cc(Nc3cc(C(=O)N4CCOCC4)c4cccc(C(F)(F)F)c4n3)ncc21              ≥ 8.00
2  [2H]C([2H])([2H])n1c(=O)n([C@@H]2CC[C@@H](NC(=O)OC)C2)c2cc(Nc3cc(C(=O)N4CCOCC4)c(-c4cnn(C)c4)c(OC4CCC4)n3)ncc21              ≥ 8.00
3  COC(=O)N[C@@H]1CC[C@@H](n2c(=O)n(C)c3cnc(Nc4cccc(C(=O)NC5CCCCC5)n4)cc32)C1              ≥ 8.00
4  COC(=O)Nc1cc(Nc2cc3c(cn2)n(C)c(=O)n3C2CCC(C)(NC(=O)OC)CC2)cc(-c2cnn(C)c2)c1 (stereo not drawn)        7.00 to 8.00
5  COC(=O)N[C@@H]1CC[C@@H](n2c(=O)n(C)c3cnc(Nc4cccc(OC5CCC(C#N)CC5)n4)cc32)C1 (stereo partly drawn)        7.00 to 8.00

====

Recorded pIC50 for the following compounds
# System Tested: pseudo-kinase domain (JH2, amino-acids 536-812) of human Wild Type JAK2 (Homo sapiens, UniProt O60674, F794H/W659A/W777A)
# Construct: pseudo-kinase domain (JH2, amino-acids 536-812 with 3 surface mutations W659A, W777A, F794H); His (C)
# Protocol Text: JAK2 LanthaScreen JH2-WT Binding Assay
# Condition: JAK2 JH2-WT 0.145 nM, 50 nM tracer, 1 hour at 25° C.; read-out: JH2 BIND WT
pIC50: −log10 of the molar value.

Compound	pIC50
Cn1c(=O)n(C2CCOC2)c2cc(Nc3cc(NC(=O)OC4CCC4)cc(-c4cnn(C5CC5)c4)c3)ncc21 (centres unmarked) [Example 62]	6.30 to 7.00
COC(=O)N[C@@H]1CC[C@@H](n2c(=O)n(C)c3cnc(Nc4cc(C)cc(-c5ccnc(OC)c5)n4)cc32)C1 [Example 67]	≥ 8.00
[2H]C([2H])([2H])n1c(=O)n([C@@H]2CC[C@@H](NC(=O)OC)C2)c2cc(Nc3cc(C(=O)N4CC5CC4CO5)c4cccc(C(F)(F)F)c4n3)ncc21 (some centres unmarked) [Example 12]	≥ 8.00
COC(=O)N[C@@H]1CC[C@@H](n2c(=O)n(C)c3cnc(Nc4cc(-c5cnn(C)c5)cc(-c5cccc(C#N)c5)n4)cc32)C1 [Example 51]	≥ 8.00
[2H]C([2H])([2H])n1c(=O)n([C@@H]2CC[C@@H](NC(=O)OC)C2)c2cc(Nc3cc(C(C)(C)O)c4nc(C)n(-c5cnn(C(F)F)c5)c4n3)ncc21 [Example 115]	≥ 8.00
[2H]C([2H])([2H])n1c(=O)n([C@H]2CC[C@@](C)(NC(=O)C3CC3)CC2)c2cc(Nc3ccc4c(n3)c(-c3cnn(C(F)(F)F)c3)nn4CC(C)(C)O)ncc21 [Example 120]	≥ 8.00
[2H]C([2H])([2H])n1c(=O)n([C@@H]2CC[C@@H](NC(=O)OC)C2)c2cc(Nc3cc(C(=O)N4CC[C@@H](F)C4)cc(-c4ccc5c(c4)OCCO5)n3)ncc21 [Example 80]	≥ 8.00
COC(=O)Nc1cc(Nc2cc3c(cn2)n(C)c(=O)n3[C@H]2C[C@H](NC(=O)C3CC3)C2)cc(-c2cnn(C)c2)c1 [Example 24]	7.00 to 8.00
Cn1cc(-c2cc(NC(=O)OC3CCC3)cc(Nc3cc4c(cn3)n(C)c(=O)n4C3CCCC3)c2)cn1 [Example 60]	7.00 to 8.00
COC(=O)N[C@@H]1CC[C@@H](n2c(=O)n(C)c3cnc(Nc4ccnc(NC5CCC(F)(F)C5)n4)cc32)C1 (some centres unmarked) [Example 83]	≥ 8.00
[2H]C([2H])([2H])n1c(=O)n([C@@H]2CC[C@@H](NC(=O)OC)C2)c2cc(Nc3ccc4cc(NC5CCC(F)(F)C5)cc(C(F)(F)F)c4n3)ncc21 (some centres unmarked) [Example 18]	≥ 8.00
[2H]C([2H])([2H])n1c(=O)n(C2CC3(CC(NC(=O)C4CC4)C3)C2)c2cc(Nc3cc(C(=O)N4CCOCC4)c4cccc(C(F)(F)F)c4n3)ncc21 (centres unmarked) [Example 90]	≥ 8.00
[2H]C([2H])([2H])n1c(=O)n([C@@H]2CC[C@@H](NC(=O)OC)C2)c2cc(Nc3cc(C(C)(C)O)cc(-c4ncc(C(C)(C)O)s4)n3)ncc21 [Example 144]	≥ 8.00
COC(=O)N[C@@H]1CC[C@@H](n2c(=O)n(C)c3cnc(Nc4ccnc(NC5CCOCC5)n4)cc32)C1 [Example 85]	7.00 to 8.00
[2H]C([2H])([2H])n1c(=O)n([C@@H]2CC[C@@H](NC(=O)OC)C2)c2cc(Nc3ccc4cccc(C5(C)CC5)c4n3)ncc21 [Example 58]	≥ 8.00
[2H]C([2H])([2H])n1c(=O)n([C@@H]2CC[C@@H](NC(=O)OC)C2)c2cc(Nc3cc(CN4CCOCC4)cc(-c4ccc5c(c4)OCCO5)n3)ncc21 [Example 74]	≥ 8.00
[2H]C([2H])([2H])n1c(=O)n([C@@H]2CC[C@@H](NC(=O)OC)C2)c2cc(Nc3ccc4c(n3)c(-c3cnn(C(F)(F)F)c3)cn4CCOC)ncc21 [Example 88]	≥ 8.00
[2H]C([2H])([2H])n1c(=O)n([C@@H]2CC[C@@H](NC(=O)OC)C2)c2cc(Nc3cc(C(C)(C)O)c4cc(-c5cnn(C)c5)cc(C(F)(F)F)c4n3)ncc21 [Example 94]	≥ 8.00
[2H]C([2H])([2H])n1cc(-c2cnc3ccc(Nc4cc5c(cn4)n(C)c(=O)n5[C@@H]4CC[C@@H](NC(=O)OC)C4)nn23)c(F)n1 [Example 59]	≥ 8.00
Cn1cc(-c2cc(NC(=O)OC3CCC3)cc(Nc3cc4c(cn3)n(C)c(=O)n4[C@@H]3CC[C@@H](NC(=O)OC4CCOCC4)C3)c2)cn1 [Example 48]	7.00 to 8.00
COC(=O)N[C@@H]1CC[C@@H](n2c(=O)n(C)c3cnc(Nc4cccc(Oc5ccc6ncccc6c5)n4)cc32)C1 [Example 23]	7.00 to 8.00
[2H]C([2H])([2H])n1c(=O)n([C@@H]2CC[C@@H](NC(=O)OC)C2)c2cc(Nc3cc(C(=O)N4CCN5CCCCC5C4)cc(-c4ccc5c(c4)OCCO5)n3)ncc21 (some centres unmarked) [Example 76]	≥ 8.00
[2H]C([2H])([2H])n1c(=O)n([C@@H]2CC[C@@H](NC(=O)OC)C2)c2cc(Nc3cc(C4CCN(C)CC4)cc(-c4ncc(C(F)(F)F)s4)n3)ncc21 [Example 157]	≥ 8.00
